Test system: Aspergillus niger
Assay comment: Antifungal activity against Aspergillus niger ATCC 9029 after 2 days by microdilution broth method
Format: functional
Condition info: ATCC 9029, 48 h
Criterion: MIC strictly less than 30 µM. Met: met. Not met: not met.

Q. Quick check: MIC of Cc1nc(-c2ccccc2)sc1C1SCC(=O)N1c1ccccc1 (centres undefined) under 30 µM?
A. not met

Q. Try Cc1nc(Cc2ccc(Cl)cc2)sc1C1SCC(=O)N1c1ccc(F)cc1 (centres undefined) next.
A. met

Q. Please do the same for `OC(Cn1cncn1)(Cn1cncn1)c1ccc(F)cc1F` as well.
A. met

Q. Note, next up: Cc1nc(-c2ccccc2)sc1C1SCC(=O)N1c1ccc(F)c(Cl)c1 (centres undefined)
A. not met

Q. Also need Cc1nc(-c2ccc(Cl)cc2)sc1C1SCC(=O)N1c1ccc(Cl)cc1 (centres undefined) , thanks.
A. not met

Q. // next record Cc1nc(-c2ccccc2)sc1C1SCC(=O)N1c1ccc(Cl)cc1 (centres undefined)
A. not met

Q. Same read-out for Cc1nc(Cc2ccc(Cl)cc2)sc1C1SCC(=O)N1c1ccccc1 (centres undefined) ?
A. not met

Q. # iterate: Cc1nc(-c2ccc(Cl)cc2)sc1C1SCC(=O)N1c1ccc(F)c(Cl)c1 (centres undefined)
A. not met

Q. For Cc1nc(-c2ccc(Cl)cc2)sc1C1SCC(=O)N1c1ccccc1 (centres undefined) then?
A. not met

Q. Moving on to the next compound: Cc1ccc(N2C(=O)CSC2c2sc(Cc3ccc(Cl)cc3)nc2C)cc1 (centres undefined)
A. met

Q. Could you do the same for Cc1nc(Cc2ccc(Cl)cc2)sc1C1SCC(=O)N1c1ccc(F)c(Cl)c1 (centres undefined) , please?
A. met

Q. Then this compound: COc1ccc(N2C(=O)CSC2c2sc(Cc3ccc(Cl)cc3)nc2C)cc1 (centres undefined)
A. met

Q. And for Cc1nc(Cc2ccc(Cl)cc2)sc1C1SCC(=O)N1c1ccc(Cl)cc1 (centres undefined) ?
A. met

Q. Another: COc1ccc(N2C(=O)CSC2c2sc(-c3ccccc3)nc2C)cc1 (centres undefined)
A. not met

Q. Now try Cc1nc(-c2ccccc2)sc1C1SCC(=O)N1c1ccc(F)cc1 (centres undefined) .
A. not met

Q. Likewise for Cc1ccc(N2C(=O)CSC2c2sc(-c3ccc(Cl)cc3)nc2C)cc1 (centres undefined) ?
A. not met

Q. Next compound: Cc1nc(-c2ccc(Cl)cc2)sc1C1SCC(=O)N1c1ccc(F)cc1 (centres undefined)
A. not met

---

Test system: Rattus norvegicus
Assay comment: Antiinflammatory activity in Wistar albino rat assessed as inhibition of carrageenan-induced paw edema at 40 mg/kg, po administered 1 hr prior to carrageenan challenge measured 4 hrs post carrageenan challenge relative to control
Type: functional
Consider the following molecules; for each one, report its inhibition in vivo at 40 mg/kg.
Kindly provide the numeric value in % only, without the unit symbol.

Q. inhibition in vivo at 40 mg/kg of Cc1nc(Cc2ccc(Cl)cc2)sc1C1SCC(=O)N1c1ccc(F)c(Cl)c1 (stereo unspecified) on Rattus norvegicus?
A. 68.9

Q. Okay, and COc1ccc(N2C(=O)CSC2c2sc(-c3ccccc3)nc2C)cc1 (stereo unspecified) ?
A. 67.1

Q. Proceed to Cc1ccc(N2C(=O)CSC2c2sc(Cc3ccc(Cl)cc3)nc2C)cc1 (stereo unspecified)
A. 81.3

Q. Try the molecule Cc1ccc(N2C(=O)CSC2c2sc(-c3ccc(Cl)cc3)nc2C)cc1 (stereo unspecified)
A. 63.9

Q. Could you do the same for Cc1nc(-c2ccccc2)sc1C1SCC(=O)N1c1ccccc1 (stereo unspecified) , please?
A. 63.7

Q. Entry Cc1nc(Cc2ccc(Cl)cc2)sc1C1SCC(=O)N1c1ccc(Cl)cc1 (stereo unspecified) please
A. 53.9

Q. What would you report for Cc1nc(-c2ccccc2)sc1C1SCC(=O)N1c1ccc(Cl)cc1 (stereo unspecified) ?
A. 80.8

Q. Note, next up: Cc1nc(-c2ccccc2)sc1C1SCC(=O)N1c1ccc(F)c(Cl)c1 (stereo unspecified)
A. 28.6

Q. Also Cc1nc(-c2ccccc2)sc1C1SCC(=O)N1c1ccc(F)cc1 (stereo unspecified) , if possible.
A. 85.3

Q. What do we get for Cc1nc(-c2ccc(Cl)cc2)sc1C1SCC(=O)N1c1ccc(F)cc1 (stereo unspecified) ?
A. 67.6

Q. Next up: Cc1nc(-c2ccc(Cl)cc2)sc1C1SCC(=O)N1c1ccc(F)c(Cl)c1 (stereo unspecified)
A. 65.1
